test system: RARg homodimer (NR concentration 270 nM); test: PBM binding z-score (relative to random genomic background probes); higher = stronger binding; sequences stand for … in GC…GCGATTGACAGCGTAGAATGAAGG
PBM binding z-score for assorted sequences
Just the number, please, no unit attached.

As a guide, the following entries are already answered.
1. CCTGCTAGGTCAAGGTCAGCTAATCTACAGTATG	7.01
2. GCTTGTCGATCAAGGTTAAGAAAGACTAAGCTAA	0.385
3. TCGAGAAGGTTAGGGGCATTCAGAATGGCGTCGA	0.841
4. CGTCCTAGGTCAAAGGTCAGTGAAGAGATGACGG	7.18
5. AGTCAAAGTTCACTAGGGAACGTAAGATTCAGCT	5.65
6. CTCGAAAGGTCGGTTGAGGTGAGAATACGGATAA	3.18
7. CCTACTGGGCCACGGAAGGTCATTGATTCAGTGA	2.38
8. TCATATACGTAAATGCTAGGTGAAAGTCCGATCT	0.209

Challenge: Give recorded PBM binding z-score. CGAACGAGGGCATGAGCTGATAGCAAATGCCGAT
Response given: 1.39

Challenge: Give recorded PBM binding z-score. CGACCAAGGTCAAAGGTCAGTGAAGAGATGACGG
Response given: 8.05

Challenge: Give recorded PBM binding z-score. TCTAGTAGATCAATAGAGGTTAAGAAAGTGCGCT
Response given: 0.2

Challenge: Give recorded PBM binding z-score. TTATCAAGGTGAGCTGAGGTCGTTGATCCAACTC
Response given: 1.07

Challenge: Give recorded PBM binding z-score. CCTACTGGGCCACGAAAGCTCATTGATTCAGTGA
Response given: 0.00415

Challenge: Give recorded PBM binding z-score. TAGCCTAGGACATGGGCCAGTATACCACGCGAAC
Response given: 0.0243

====

system: PPARg DBDmut IVT, anti-PPARg (DBD mutation: PPARg1 K132A/R137A, NR concentration 270 nM); assay: PBM binding z-score (relative to random genomic background probes); higher = stronger binding; sequences stand for … in GC…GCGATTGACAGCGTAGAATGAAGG
PBM binding z-score for assorted sequences
Just the number, please, no unit attached.

As a guide, the following entries are already answered.
1. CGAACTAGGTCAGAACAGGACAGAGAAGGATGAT	0.658
2. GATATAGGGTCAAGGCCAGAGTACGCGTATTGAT	1.98
3. ATCGAAAGGTAGTGAGGTGAGTATACAGAAAGGC	1.02
4. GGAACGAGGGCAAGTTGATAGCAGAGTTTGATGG	-0.551

Please turn your attention to the following entry.
Challenge: Give recorded PBM binding z-score. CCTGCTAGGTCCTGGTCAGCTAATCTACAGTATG
Response given: -0.479

====

test system: FXR:RXRa (NR concentration 270 nM, RXRa partner concentration 90 nM); assay: PBM binding z-score (relative to random genomic background probes); higher = stronger binding; sequences stand for … in GC…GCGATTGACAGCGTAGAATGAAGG
PBM binding z-score for assorted sequences
Just the number, please, no unit attached.

Challenge: Give recorded PBM binding z-score. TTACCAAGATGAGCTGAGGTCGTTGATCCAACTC
Response given: 0.71

Challenge: Give recorded PBM binding z-score. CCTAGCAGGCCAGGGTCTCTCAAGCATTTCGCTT
Response given: -0.78

Challenge: Give recorded PBM binding z-score. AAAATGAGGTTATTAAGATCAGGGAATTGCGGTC
Response given: 1.95

Challenge: Give recorded PBM binding z-score. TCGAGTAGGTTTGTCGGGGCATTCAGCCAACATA
Response given: 0.314

Challenge: Give recorded PBM binding z-score. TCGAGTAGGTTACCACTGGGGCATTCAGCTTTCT
Response given: -0.222

Challenge: Give recorded PBM binding z-score. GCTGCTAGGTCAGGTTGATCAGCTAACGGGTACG
Response given: 1.01

Challenge: Give recorded PBM binding z-score. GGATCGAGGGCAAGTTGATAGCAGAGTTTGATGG
Response given: 0.982

Challenge: Give recorded PBM binding z-score. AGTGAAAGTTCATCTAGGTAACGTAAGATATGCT
Response given: 5.95

Challenge: Give recorded PBM binding z-score. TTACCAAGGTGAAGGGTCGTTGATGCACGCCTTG
Response given: 1.88

Challenge: Give recorded PBM binding z-score. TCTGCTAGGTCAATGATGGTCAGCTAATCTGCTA
Response given: 2.48

Challenge: Give recorded PBM binding z-score. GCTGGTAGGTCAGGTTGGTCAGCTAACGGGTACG
Response given: 1.28

Challenge: Give recorded PBM binding z-score. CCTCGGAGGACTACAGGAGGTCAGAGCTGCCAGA
Response given: 0.709

Challenge: Give recorded PBM binding z-score. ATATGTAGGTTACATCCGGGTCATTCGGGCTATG
Response given: 2.27

====

tested on: LXRa:RXRa (NR concentration 270 nM, RXRa partner concentration 90 nM); assay: PBM binding z-score (relative to random genomic background probes); higher = stronger binding; sequences stand for … in GC…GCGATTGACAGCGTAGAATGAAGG
Lab note: compare PBM binding z-score against 2. Equal or greater, write yes. Smaller, write no.

Some entries whose results are on file:
1) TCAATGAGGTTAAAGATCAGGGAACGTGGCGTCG	yes
2) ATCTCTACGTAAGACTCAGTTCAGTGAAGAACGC	no

Challenge: Given the entry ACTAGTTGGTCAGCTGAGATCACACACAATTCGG , answer whether its PBM binding z-score meets or surpasses 2.
Response given: no

Challenge: Given the entry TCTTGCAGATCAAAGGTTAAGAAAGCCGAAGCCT , answer whether its PBM binding z-score meets or surpasses 2.
Response given: no

====

PBM binding z-score for assorted sequences
system: RARa:RXR (NR concentration 270 nM, RXRa partner concentration 90 nM); assay: PBM binding z-score (relative to random genomic background probes); higher = stronger binding; sequences stand for … in GC…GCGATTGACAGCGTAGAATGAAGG
Just the number, please, no unit attached.

As a guide, the following entries are already answered.
1. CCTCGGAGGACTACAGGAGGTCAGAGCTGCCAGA	2.24
2. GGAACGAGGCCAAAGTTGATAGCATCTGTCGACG	0.441
3. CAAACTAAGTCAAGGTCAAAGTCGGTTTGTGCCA	4.9
4. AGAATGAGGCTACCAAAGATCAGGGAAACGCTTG	-0.0885
5. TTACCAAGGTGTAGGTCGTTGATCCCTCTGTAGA	0.688

Please turn your attention to the following entry.
Challenge: Give recorded PBM binding z-score. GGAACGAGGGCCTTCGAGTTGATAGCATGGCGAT
Response given: -0.659

====

system: THRa:RXRa (NR concentration 90 nM, RXRa partner concentration 90 nM); experiment: PBM binding z-score (relative to random genomic background probes); higher = stronger binding; sequences stand for … in GC…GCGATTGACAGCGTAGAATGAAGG
Would you mind classing the entries by PBM binding z-score? Ranges: band 1: < 0.7; band 2: ≥ 0.7 and < 3; band 3: ≥ 3

Some entries whose results are on file:
1. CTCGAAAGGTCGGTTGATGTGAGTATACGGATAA	band 2
2. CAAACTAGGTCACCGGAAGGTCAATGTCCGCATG	band 3
3. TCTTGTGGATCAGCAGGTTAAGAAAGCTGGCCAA	band 1

Challenge: Field: class (PBM binding z-score) — entry: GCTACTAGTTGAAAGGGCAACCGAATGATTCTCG
Response given: band 1

Challenge: Field: class (PBM binding z-score) — entry: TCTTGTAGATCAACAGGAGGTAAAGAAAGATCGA
Response given: band 1

Challenge: Field: class (PBM binding z-score) — entry: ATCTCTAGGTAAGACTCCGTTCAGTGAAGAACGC
Response given: band 1

Challenge: Field: class (PBM binding z-score) — entry: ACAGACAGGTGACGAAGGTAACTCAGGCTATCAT
Response given: band 2

Challenge: Field: class (PBM binding z-score) — entry: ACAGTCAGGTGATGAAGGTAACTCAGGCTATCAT
Response given: band 2

Challenge: Field: class (PBM binding z-score) — entry: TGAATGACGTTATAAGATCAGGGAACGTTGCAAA
Response given: band 1

Challenge: Field: class (PBM binding z-score) — entry: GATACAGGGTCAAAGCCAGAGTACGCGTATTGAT
Response given: band 3

Challenge: Field: class (PBM binding z-score) — entry: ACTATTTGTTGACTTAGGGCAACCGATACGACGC
Response given: band 2

Challenge: Field: class (PBM binding z-score) — entry: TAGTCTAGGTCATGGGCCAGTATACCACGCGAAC
Response given: band 3

Challenge: Field: class (PBM binding z-score) — entry: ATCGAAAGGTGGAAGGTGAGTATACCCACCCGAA
Response given: band 1

Challenge: Field: class (PBM binding z-score) — entry: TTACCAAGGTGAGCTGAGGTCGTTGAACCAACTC
Response given: band 3

Challenge: Field: class (PBM binding z-score) — entry: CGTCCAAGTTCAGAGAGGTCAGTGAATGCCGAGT
Response given: band 3

Challenge: Field: class (PBM binding z-score) — entry: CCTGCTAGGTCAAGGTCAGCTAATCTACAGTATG
Response given: band 3
